Please provide measured IC50 for the entries that follow.
Target: Neurogenic locus notch homolog protein 3 (Human, UniProt Q9UM47)
Sequence (Q9UM47 whole entry, the tested form may be a part): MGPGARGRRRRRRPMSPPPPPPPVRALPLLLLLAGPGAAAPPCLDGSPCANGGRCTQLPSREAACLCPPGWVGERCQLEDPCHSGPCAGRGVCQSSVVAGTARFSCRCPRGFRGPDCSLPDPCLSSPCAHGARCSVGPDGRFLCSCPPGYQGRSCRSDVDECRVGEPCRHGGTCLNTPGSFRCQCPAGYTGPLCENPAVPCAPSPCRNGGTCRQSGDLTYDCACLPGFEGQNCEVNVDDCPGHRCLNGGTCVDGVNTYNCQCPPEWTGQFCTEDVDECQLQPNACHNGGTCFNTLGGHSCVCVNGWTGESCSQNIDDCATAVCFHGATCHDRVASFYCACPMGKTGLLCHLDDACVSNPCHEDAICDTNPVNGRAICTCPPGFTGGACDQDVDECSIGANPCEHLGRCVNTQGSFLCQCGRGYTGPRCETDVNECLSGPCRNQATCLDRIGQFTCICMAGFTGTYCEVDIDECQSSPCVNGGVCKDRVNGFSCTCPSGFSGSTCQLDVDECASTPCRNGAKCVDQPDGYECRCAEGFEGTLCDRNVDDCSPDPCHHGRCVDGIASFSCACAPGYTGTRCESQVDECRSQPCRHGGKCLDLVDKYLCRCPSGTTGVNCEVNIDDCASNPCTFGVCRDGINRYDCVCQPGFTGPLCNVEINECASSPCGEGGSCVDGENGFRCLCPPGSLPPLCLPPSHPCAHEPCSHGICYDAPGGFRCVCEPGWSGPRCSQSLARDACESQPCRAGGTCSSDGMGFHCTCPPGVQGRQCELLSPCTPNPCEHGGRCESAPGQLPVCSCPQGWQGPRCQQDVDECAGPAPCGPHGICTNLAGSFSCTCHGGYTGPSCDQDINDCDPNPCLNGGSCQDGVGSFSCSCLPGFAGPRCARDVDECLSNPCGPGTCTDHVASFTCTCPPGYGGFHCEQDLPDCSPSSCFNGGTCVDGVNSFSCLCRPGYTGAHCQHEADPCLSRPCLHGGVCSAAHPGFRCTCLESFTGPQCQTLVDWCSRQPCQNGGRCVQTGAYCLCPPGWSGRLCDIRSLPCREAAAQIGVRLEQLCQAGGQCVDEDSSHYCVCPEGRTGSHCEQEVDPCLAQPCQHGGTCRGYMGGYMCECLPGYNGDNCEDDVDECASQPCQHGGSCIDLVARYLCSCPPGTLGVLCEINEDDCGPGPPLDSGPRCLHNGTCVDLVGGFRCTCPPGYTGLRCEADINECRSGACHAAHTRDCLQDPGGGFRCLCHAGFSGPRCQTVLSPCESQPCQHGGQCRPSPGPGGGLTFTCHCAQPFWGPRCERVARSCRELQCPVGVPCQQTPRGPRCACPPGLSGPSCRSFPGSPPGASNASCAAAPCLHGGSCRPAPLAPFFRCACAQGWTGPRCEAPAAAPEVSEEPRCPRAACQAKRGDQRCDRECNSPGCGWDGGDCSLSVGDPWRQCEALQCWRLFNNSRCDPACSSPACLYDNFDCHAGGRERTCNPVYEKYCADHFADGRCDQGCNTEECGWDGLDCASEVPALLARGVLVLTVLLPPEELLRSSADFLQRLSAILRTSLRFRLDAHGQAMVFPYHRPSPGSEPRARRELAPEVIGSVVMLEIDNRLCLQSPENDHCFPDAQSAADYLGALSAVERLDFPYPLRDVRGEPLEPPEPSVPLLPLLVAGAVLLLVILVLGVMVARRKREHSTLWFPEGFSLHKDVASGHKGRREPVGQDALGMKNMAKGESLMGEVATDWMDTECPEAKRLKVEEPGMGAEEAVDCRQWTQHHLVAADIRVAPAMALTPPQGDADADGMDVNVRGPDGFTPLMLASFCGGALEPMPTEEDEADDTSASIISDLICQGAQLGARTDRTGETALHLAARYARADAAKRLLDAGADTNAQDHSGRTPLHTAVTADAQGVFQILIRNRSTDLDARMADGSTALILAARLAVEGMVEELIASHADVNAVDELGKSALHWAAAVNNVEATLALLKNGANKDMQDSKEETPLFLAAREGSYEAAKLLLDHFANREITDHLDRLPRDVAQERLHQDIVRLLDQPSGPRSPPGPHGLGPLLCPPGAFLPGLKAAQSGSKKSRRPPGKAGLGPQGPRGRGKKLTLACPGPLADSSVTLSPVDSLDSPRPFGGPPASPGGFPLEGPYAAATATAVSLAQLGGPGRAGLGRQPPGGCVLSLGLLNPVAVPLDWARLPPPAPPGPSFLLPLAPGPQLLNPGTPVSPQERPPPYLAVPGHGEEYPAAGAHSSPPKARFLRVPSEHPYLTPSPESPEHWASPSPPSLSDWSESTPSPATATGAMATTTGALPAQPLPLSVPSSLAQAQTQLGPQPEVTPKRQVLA
Assay: Inhibition of Notch3 intracellular domain fragment transfected in human HeLa cells co-transfected with CBF1-PGL3 luciferase reporter vector by transactivation assay
// return numeric value only (unit: nM, not printed)

Form field: reported IC50 of `COc1ccc([C@H](C(N)=O)[C@@H](CCC(F)(F)F)C(=O)N[C@H]2N=C(c3ccccc3)c3ccccc3N(C)C2=O)cc1`
6

What about `Cc1cccc([C@H](C(N)=O)[C@@H](CCC(F)(F)F)C(=O)N[C@H]2N=C(c3ccccc3)c3ccccc3N(C)C2=O)c1` ?
1

And `NC(=O)[C@@H](c1cocn1)[C@@H](CCC(F)(F)F)C(=O)N[C@H]1N=C(c2ccccc2)c2ccccc2NC1=O` ?
161

Lookup `CN1C(=O)[C@@H](NC(=O)[C@H](CCC(F)(F)F)[C@@H](C(N)=O)c2cccc(C(F)(F)F)c2)N=C(c2ccccc2)c2ccccc21`
2

###

Molecular target: Neurogenic locus notch homolog protein 1 (Homo sapiens, UniProt P46531)
Sequence (P46531 whole entry, the tested form may be a part): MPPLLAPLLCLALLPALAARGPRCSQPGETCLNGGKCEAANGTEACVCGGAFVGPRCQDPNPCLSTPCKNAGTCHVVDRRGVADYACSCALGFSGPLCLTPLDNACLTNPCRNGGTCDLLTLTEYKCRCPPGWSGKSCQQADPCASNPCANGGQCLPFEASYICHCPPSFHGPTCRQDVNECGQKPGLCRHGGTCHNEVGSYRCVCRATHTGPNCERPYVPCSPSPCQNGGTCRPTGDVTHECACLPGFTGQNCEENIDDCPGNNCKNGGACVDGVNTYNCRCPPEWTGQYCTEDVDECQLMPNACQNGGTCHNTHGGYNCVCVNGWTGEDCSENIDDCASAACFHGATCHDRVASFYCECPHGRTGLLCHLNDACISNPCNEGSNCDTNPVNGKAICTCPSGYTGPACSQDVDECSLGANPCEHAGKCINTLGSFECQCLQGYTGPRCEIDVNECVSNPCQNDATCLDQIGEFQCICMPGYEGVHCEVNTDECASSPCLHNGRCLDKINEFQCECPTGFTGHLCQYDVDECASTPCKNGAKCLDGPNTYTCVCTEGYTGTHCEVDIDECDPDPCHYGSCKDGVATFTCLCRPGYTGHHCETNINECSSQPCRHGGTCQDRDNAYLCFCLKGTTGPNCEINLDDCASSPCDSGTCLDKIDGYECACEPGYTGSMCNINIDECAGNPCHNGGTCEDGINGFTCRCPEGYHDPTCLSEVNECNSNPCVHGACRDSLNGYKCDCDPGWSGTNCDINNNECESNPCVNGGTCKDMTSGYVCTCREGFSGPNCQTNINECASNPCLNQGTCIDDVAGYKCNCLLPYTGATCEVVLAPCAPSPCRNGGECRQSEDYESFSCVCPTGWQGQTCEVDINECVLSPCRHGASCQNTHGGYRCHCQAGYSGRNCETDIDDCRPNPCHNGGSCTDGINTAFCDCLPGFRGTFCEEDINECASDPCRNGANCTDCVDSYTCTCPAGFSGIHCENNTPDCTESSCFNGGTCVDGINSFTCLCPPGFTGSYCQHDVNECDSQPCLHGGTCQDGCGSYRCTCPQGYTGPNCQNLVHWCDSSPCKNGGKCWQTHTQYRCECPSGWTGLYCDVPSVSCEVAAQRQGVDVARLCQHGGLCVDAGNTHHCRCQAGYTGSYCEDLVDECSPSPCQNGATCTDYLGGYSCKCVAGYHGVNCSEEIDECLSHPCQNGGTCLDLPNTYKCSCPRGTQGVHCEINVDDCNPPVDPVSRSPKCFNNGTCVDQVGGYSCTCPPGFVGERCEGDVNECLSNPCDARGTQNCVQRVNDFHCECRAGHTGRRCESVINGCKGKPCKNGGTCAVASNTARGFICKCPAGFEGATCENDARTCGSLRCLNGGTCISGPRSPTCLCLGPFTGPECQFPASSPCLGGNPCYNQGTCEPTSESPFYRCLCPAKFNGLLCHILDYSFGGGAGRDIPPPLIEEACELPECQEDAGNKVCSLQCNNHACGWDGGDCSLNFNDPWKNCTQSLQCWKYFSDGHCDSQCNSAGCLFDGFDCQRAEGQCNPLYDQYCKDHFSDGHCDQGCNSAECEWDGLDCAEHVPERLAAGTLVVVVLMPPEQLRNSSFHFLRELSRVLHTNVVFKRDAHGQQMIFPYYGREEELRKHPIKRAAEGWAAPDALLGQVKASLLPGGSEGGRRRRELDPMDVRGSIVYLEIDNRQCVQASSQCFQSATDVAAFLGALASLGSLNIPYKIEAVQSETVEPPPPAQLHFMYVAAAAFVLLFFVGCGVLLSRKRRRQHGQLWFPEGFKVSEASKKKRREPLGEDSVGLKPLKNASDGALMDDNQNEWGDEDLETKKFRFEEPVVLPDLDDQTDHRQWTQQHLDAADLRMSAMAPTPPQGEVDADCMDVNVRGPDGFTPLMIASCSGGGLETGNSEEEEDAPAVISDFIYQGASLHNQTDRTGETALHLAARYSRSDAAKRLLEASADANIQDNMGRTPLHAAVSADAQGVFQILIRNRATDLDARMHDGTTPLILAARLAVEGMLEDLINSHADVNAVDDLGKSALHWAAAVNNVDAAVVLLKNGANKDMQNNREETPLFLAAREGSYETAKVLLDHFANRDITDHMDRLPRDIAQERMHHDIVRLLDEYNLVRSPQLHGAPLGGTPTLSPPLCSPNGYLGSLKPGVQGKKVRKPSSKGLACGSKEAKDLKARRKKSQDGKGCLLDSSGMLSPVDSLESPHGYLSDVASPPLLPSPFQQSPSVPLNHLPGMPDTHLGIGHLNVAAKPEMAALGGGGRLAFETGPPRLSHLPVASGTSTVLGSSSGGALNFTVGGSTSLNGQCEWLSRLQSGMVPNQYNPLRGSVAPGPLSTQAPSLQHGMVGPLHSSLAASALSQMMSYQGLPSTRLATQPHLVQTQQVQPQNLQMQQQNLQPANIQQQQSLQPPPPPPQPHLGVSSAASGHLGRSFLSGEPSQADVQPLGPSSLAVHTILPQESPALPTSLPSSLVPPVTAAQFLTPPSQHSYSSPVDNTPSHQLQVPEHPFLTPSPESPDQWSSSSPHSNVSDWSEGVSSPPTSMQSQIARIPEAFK
Assay: Inhibition of Notch1 intracellular domain fragment transfected in human HeLa cells co-transfected with CBF1-PGL3 luciferase reporter vector by transactivation assay
RESULT TYPE: pIC50
In textbook form, pIC50 equals minus log to base ten of the concentration in mol/L.

For `CN1C(=O)[C@@H](NC(=O)[C@H](CCC(F)(F)F)[C@@H](C(N)=O)c2cc(F)cc(F)c2)N=C(c2ccccc2)c2ccccc21` , what is its reported pIC50?
8.70

Same again, this time with `CN1C(=O)[C@@H](NC(=O)[C@H](CCC(F)(F)F)[C@@H](C(N)=O)c2ccc(F)cc2F)N=C(c2ccccc2)c2ccccc21`
9.00

One more compound: `CCC(CC)[C@H](C(N)=O)[C@@H](CC(C)C)C(=O)N[C@H]1N=C(c2ccccc2)c2ccccc2N(C)C1=O`
8.70

Similarly, `Cc1nc([C@H](C(N)=O)[C@@H](CCC(F)(F)F)C(=O)N[C@H]2N=C(c3ccccc3)c3ccccc3N(C)C2=O)no1` ?
6.77

###

Molecular target: Neurogenic locus notch homolog protein 2 (Homo sapiens)
Test: Inhibition of Notch2 intracellular domain fragment transfected in human HeLa cells co-transfected with CBF1-PGL3 luciferase reporter vector by transactivation assay
RESULT TYPE: IC50 (nM)
Give just the numeric value; nM need not be written.

So what's the measured IC50 for this one? `CN1C(=O)[C@@H](NC(=O)[C@H](CCC(F)(F)F)[C@@H](C(N)=O)c2ccccc2)N=C(c2ccccc2)c2ccccc21`
1

###

Biological target: Neurogenic locus notch homolog protein 3 (Human, UniProt Q9UM47)
Assay: Inhibition of Notch3 intracellular domain fragment transfected in human HeLa cells co-transfected with CBF1-PGL3 luciferase reporter vector by transactivation assay
What pIC50 was measured for each of the following?
Note on units: pIC50 is unitless, being -log10 of a concentration expressed in mol/L.

Request the reported pIC50 associated with `CN1C(=O)[C@@H](NC(=O)[C@H](CCC(F)(F)F)[C@@H](C(N)=O)c2cccc(OC(F)(F)F)c2)N=C(c2ccccc2)c2ccccc21`
8.40

What would you report for `NC(=O)[C@@H](c1cnoc1)[C@@H](CCC(F)(F)F)C(=O)N[C@H]1N=C(c2ccccc2)c2ccccc2NC1=O` ?
7.54

Record: `CN1C(=O)[C@@H](NC(=O)[C@H](CCC(F)(F)F)[C@@H](C(N)=O)c2ccc(F)c(F)c2)N=C(c2ccccc2)c2ccccc21`
8.70

Also `CN1C(=O)[C@@H](NC(=O)[C@H](CCC(F)(F)F)[C@@H](C(N)=O)c2ccc(F)cc2F)N=C(c2ccccc2)c2ccccc21` ?
9.00

Now try `Cc1cc([C@H](C(N)=O)[C@@H](CCC(F)(F)F)C(=O)N[C@H]2N=C(c3ccccc3)c3ccccc3N(C)C2=O)no1` .
7.21

Now this one: `CCC[C@H](C(N)=O)[C@@H](CC(F)(F)F)C(=O)N[C@H]1N=C(c2ccccc2)c2ccccc2N(C)C1=O`
7.62

Also `Cc1nc([C@H](C(N)=O)[C@@H](CCC(F)(F)F)C(=O)N[C@H]2N=C(c3ccccc3)c3ccccc3N(C)C2=O)no1` , if possible.
6.92

Same again, this time with `CN1C(=O)[C@@H](NC(=O)[C@H](CCC(F)(F)F)[C@@H](C(N)=O)c2cc(F)cc(F)c2)N=C(c2ccccc2)c2ccccc21`
8.70

What do you get for `CCC(CC)[C@H](C(N)=O)[C@@H](CC(C)(C)C)C(=O)N[C@H]1N=C(c2ccccc2)c2ccccc2N(C)C1=O` ?
8.52

Can you handle `NC(=O)[C@@H](c1ncon1)[C@@H](CCC(F)(F)F)C(=O)N[C@H]1N=C(c2ccccc2)c2ccccc2NC1=O` next?
6.18

Quick one: `Cc1nocc1[C@H](C(N)=O)[C@@H](CCC(F)(F)F)C(=O)N[C@H]1N=C(c2ccccc2)c2ccccc2N(C)C1=O`
8.52

What do we get for `CN1C(=O)[C@@H](NC(=O)[C@H](CCC(F)(F)F)[C@@H](C(N)=O)c2cccc(S(C)(=O)=O)c2)N=C(c2ccccc2)c2ccccc21` ?
5.65

Moving on to `CCC(CC)[C@H](C(N)=O)[C@@H](CCC(F)(F)F)C(=O)N[C@H]1N=C(c2ccccc2)c2ccccc2N(C)C1=O`
9.00

Please answer likewise for `CN1C(=O)[C@@H](NC(=O)[C@H](CCC(F)(F)F)[C@@H](C(N)=O)c2ccc(F)cc2)N=C(c2ccccc2)c2ccccc21`
9.00
